The reported measurements were obtained from ChEMBL document CHEMBL4811239.

assayed-target: Carbonic anhydrase 9 (Homo sapiens)
assay-procedure: Inhibition of recombinant human CA9 pre-incubated for 15 mins prior to testing by phenol red-based stopped-flow CO2 hydration assay
pKi: −log10 of the molar value.
# pKi values compiled below
observed-property: pKi

[[record]]
compound = "CCN(CC)C(=O)CNc1ccc(S(N)(=O)=O)cc1"
assayed_target = "Carbonic anhydrase 9 (Homo sapiens)"
observed_property = "pKi"
endpoint_value = 7.05

[[record]]
compound = "Cc1ccc(N2C(=O)C(Cc3ccc(Cl)cc3)=C(Nc3cccc(S(N)(=O)=O)c3)C2=O)cc1"
assayed_target = "Carbonic anhydrase 9 (Homo sapiens)"
observed_property = "pKi"
endpoint_value = 6.20

[[record]]
compound = "CC(C)OC(=O)C(Nc1ccc(S(N)(=O)=O)cc1)C(=O)OC(C)C"
assayed_target = "Carbonic anhydrase 9 (Homo sapiens)"
observed_property = "pKi"
endpoint_value = 7.55

[[record]]
compound = "Cc1ccc(C(=O)CNc2cccc(S(N)(=O)=O)c2)cc1"
assayed_target = "Carbonic anhydrase 9 (Homo sapiens)"
observed_property = "pKi"
endpoint_value = 7.19

[[record]]
compound = "CCOC(=O)C(Nc1ccc(S(N)(=O)=O)cc1)c1ccc(OC)c(OC)c1 (stereo not given)"
assayed_target = "Carbonic anhydrase 9 (Homo sapiens)"
observed_property = "pKi"
endpoint_value = 8.19

[[record]]
compound = "CC(C)C(C(=O)Nc1cccc(S(N)(=O)=O)c1)C(=O)c1ccccc1 (stereo not given)"
assayed_target = "Carbonic anhydrase 9 (Homo sapiens)"
observed_property = "pKi"
endpoint_value = 7.15

[[record]]
compound = "CCOC(=O)C(C(=O)Nc1ccc(S(N)(=O)=O)cc1)c1ccccc1 (stereo not given)"
assayed_target = "Carbonic anhydrase 9 (Homo sapiens)"
observed_property = "pKi"
endpoint_value = 7.21

[[record]]
compound = "COCCOC(=O)C(Nc1ccc(S(N)(=O)=O)cc1)C(=O)OCCOC"
assayed_target = "Carbonic anhydrase 9 (Homo sapiens)"
observed_property = "pKi"
endpoint_value = 7.43

[[record]]
compound = "CC(C(=O)Nc1ccc(S(N)(=O)=O)cc1)C(=O)c1ccc(Cl)cc1 (stereo not given)"
assayed_target = "Carbonic anhydrase 9 (Homo sapiens)"
observed_property = "pKi"
endpoint_value = 7.46

[[record]]
compound = "NS(=O)(=O)c1ccc(NC2CCN(c3cccc(C(F)(F)F)c3)C2=O)cc1 (stereo not given)"
assayed_target = "Carbonic anhydrase 9 (Homo sapiens)"
observed_property = "pKi"
endpoint_value = 7.71


----------
Tested on: MCF7
assay-procedure: Antiproliferative activity against human MCF7 cells assessed as cell survival at 100 uM after 72 hrs under hypoxic condition by MTT assay
Type: functional
Activity calls are given as the source filed them. The calls are words filed in the database; no cut-off is given here.
Labels: active, inactive

[[record]]
compound = "CCOC(=O)C(Nc1ccc(S(N)(=O)=O)cc1)C(=O)c1ccc(OC)cc1 (centres undefined)"
class_label = "inactive"

[[record]]
compound = "NS(=O)(=O)c1ccc(NC2CCCCCC2=O)cc1 (centres undefined)"
class_label = "inactive"

[[record]]
compound = "CCN(CC)C(=O)CNc1cccc(S(N)(=O)=O)c1"
class_label = "inactive"

[[record]]
compound = "COc1ccccc1CC1=C(Nc2ccc(S(N)(=O)=O)cc2)C(=O)N(c2ccccc2)C1=O"
class_label = "active"

[[record]]
compound = "CCOC(=O)C(Nc1ccc(S(N)(=O)=O)cc1)C(=O)c1ccccc1 (centres undefined)"
class_label = "inactive"

[[record]]
compound = "Cc1ccc(C(=O)CNc2cccc(S(N)(=O)=O)c2)cc1"
class_label = "inactive"

[[record]]
compound = "CCOC(=O)C(C(=O)Nc1cccc(S(N)(=O)=O)c1)C(C)C (centres undefined)"
class_label = "inactive"

[[record]]
compound = "CC(C)OC(=O)C(Nc1ccc(S(N)(=O)=O)cc1)C(=O)OC(C)C"
class_label = "inactive"

[[record]]
compound = "Cc1ccc(C(=O)CNc2ccc(S(N)(=O)=O)cc2)cc1"
class_label = "inactive"

